These data points were gathered from the supplement of paper PMC9112550.

Test system: Escherichia coli TOP10
assay_overview: shrunken log2 fold change of peptide-encoding DNA abundance (4.5 h post-induction vs induction); higher = less antimicrobial activity (less host growth inhibition)
conditions_used: time post-induction: 4.5 h; library: site-saturation at positions 5, 18, 19, 20
reported_endpoint: shrunken log2 fold change
One number for each entry.

          primary_sequence  numeric_result
0  RRIRKRPPRLPRPRPRPNAFPRP          0.0186
1  RRIRYRPPRLPRPRPRPSPVPRP          -0.612
2  RRIRSRPPRLPRPRPRPTDYPRP           -0.66
3  RRIRTRPPRLPRPRPRPALYPRP          0.0598
4  RRIRKRPPRLPRPRPRPNLIPRP          -0.494

Below is a list of sequences. For each, state its recorded shrunken log2 fold change.
1. RRIRHRPPRLPRPRPRPQIAPRP
2. RRIRFRPPRLPRPRPRPCARPRP
3. RRIRFRPPRLPRPRPRPVYAPRP

Output line:
1: -0.103; 2: 0.232; 3: -0.444

* * *

System: Escherichia coli TOP10
assay_overview: shrunken log2 fold change of peptide-encoding DNA abundance (4.5 h post-induction vs induction); higher = less antimicrobial activity (less host growth inhibition)
conditions_used: time post-induction: 4.5 h; library: site-saturation at positions 5, 18, 19, 20
Lab note: class by shrunken log2 fold change, see low value: < -0.1; medium value: ≥ -0.1 and < 0.2; high value: ≥ 0.2

As a guide, the following entries are already answered.
          primary_sequence  category_label
0  RRIRVRPPRLPRPRPRPKFKPRP       low value
1  RRIRGRPPRLPRPRPRPPWPPRP      high value
2  RRIRGRPPRLPRPRPRPEDWPRP      high value

Input line: Class for RRIRHRPPRLPRPRPRPWRVPRP ?
Output line: medium value

Input line: Same again, this time with RRIRVRPPRLPRPRPRPEEEPRP
Output line: medium value

Input line: Same again, this time with RRIRCRPPRLPRPRPRPVQAPRP
Output line: high value

Input line: Same again, this time with RRIRSRPPRLPRPRPRPKIIPRP
Output line: medium value

Input line: Same again, this time with RRIRTRPPRLPRPRPRPDEPPRP
Output line: low value

Input line: Same again, this time with RRIRHRPPRLPRPRPRPDLLPRP
Output line: medium value

* * *

System: Escherichia coli TOP10;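 further: peptides expressed intracellularly from a pBAD plasmid library in pooled LB shake-flask culture, induced with 0.3% L-arabinose, DNA abundance read by NGS, three biological replicates, DESeq2 with apeglm shrinkage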
assay_overview: shrunken log2 fold change of peptide-encoding DNA abundance (4.5 h post-induction vs induction); higher = less antimicrobial activity (less host growth inhibition)
conditions_used: time post-induction: 4.5 h; library: site-saturation at positions 5, 18, 19, 20
Exercise: state measured shrunken log2 fold change for each of the sequences provided.
Numbers only.

          primary_sequence  numeric_result
0  RRIRCRPPRLPRPRPRPFCTPRP          -0.401
1  RRIRYRPPRLPRPRPRPLQIPRP           -0.51
2  RRIRSRPPRLPRPRPRPVMWPRP           0.459
3  RRIRCRPPRLPRPRPRPAFGPRP           0.194
4  RRIRKRPPRLPRPRPRPACSPRP           0.341

Below is a list of sequences. For each, state its recorded shrunken log2 fold change.
1. RRIRMRPPRLPRPRPRPSYLPRP
2. RRIRQRPPRLPRPRPRPTFNPRP
3. RRIRARPPRLPRPRPRPGFRPRP

Output line:
1. -0.336
2. -0.201
3. 0.555
